// data source = patent US20160137639A1

Would you kindly list EC50 for each of these molecules?
# target: human RORγ (Homo sapiens, UniProt P51449)
# Construct: human, NM_005060.3 and from Ser253 to Lys518; expressed in transfected cells; host or cells: CHO cells (transient co-transfection with pG5-Luc reporter)
# Sequence (P51449 253-518): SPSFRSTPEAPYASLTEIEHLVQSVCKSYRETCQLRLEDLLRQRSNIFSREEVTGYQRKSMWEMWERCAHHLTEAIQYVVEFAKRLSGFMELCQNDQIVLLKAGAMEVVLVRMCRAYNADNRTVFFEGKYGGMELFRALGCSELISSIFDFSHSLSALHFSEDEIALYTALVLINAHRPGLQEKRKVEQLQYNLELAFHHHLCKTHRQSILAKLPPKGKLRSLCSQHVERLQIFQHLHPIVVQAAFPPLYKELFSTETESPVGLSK
# assay comment: Luciferase reporter gene assay of inhibitory effect against RORγ transcriptional activity (GAL4-hRORγ plasmid in CHO cells)
# Format: cell-based
# assay context: read-out: LUC EC50 (μM) hRORg

Check out these entries, answers already filled in.
[[record]]
molecule = "Cc1ccc(Cl)cc1NC(=O)CCc1nnc(CCC(C)C)n1C1CC1 [Example F-131]"
measured_value = "> 3 µM"

[[record]]
molecule = "Cc1c(Cl)cccc1NC(=O)CCc1nnc(CC[C@H]2CC[C@H](C(=O)O)CC2)n1C1CC1 [Example F-243]"
measured_value = "< 3 µM"

[[record]]
molecule = "Cc1cc(Cl)c(NC(=O)C[C@H](CCC(=O)O)c2noc(-c3cc(CCC(C)(C)C)on3)c2C2CC2)cc1F [Example E-45]"
measured_value = "< 3 µM"

[[record]]
molecule = "CC(=O)N1C[C@H](C(=O)Nc2cc(C)ccc2C)[C@@H](c2nnc(CCCC(C)(C)C)n2C2CC2)C1 (racemic) [Example F-331]"
measured_value = "< 3 µM"


Please look at the items below and tell me EC50 for each one, in order.
1. CC(=O)N1C[C@H](C(=O)Nc2ccc(C)cc2C)[C@@H](c2nnc(CCOC(C)(C)C(F)(F)F)n2C2CC2)C1 (racemic) [Example F-325]
2. CCn1c(CCC(=O)NCc2ccccc2C)nnc1CCC1CCCCC1 [Example F-41]
3. CCCC(CCC)NC(=O)CCc1nnc(C2Cc3ccccc3C2)n1CC [Example F-28]
4. Cc1cccc(CCNC(=O)CCc2nnc(CCC(C)C)n2C2CC2)c1 [Example F-68]

Result:
["< 3 µM", "< 3 µM", "> 3 µM", "> 3 µM"]

----------
# target: mouse RORγ (Mus musculus, UniProt P51450)
# Construct: mouse, NM_011281.2 and from Ile251 to Lys516; expressed in transfected cells; host or cells: CHO cells (transient co-transfection with pG5-Luc reporter)
# Sequence (P51450 251-516): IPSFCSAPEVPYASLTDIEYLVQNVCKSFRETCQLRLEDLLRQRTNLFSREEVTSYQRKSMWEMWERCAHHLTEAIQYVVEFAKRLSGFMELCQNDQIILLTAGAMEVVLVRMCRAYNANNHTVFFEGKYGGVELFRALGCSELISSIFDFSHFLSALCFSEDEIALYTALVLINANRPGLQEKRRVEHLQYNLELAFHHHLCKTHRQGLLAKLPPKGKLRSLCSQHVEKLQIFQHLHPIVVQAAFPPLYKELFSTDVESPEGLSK
# assay comment: Luciferase reporter gene assay of inhibitory effect against RORγ transcriptional activity (GAL4-mRORγ plasmid in CHO cells)
# Type: cell-based
# assay context: read-out: LUC EC50 (μM) mRORg
measured quantity: EC50

[[record]]
compound = "COc1ccc(C)c(NC(=O)CCc2nnc(CCC(C)C)n2C2CC2)c1 [Example F-92]"
measured_value = "> 3 µM"

[[record]]
compound = "Cc1ccc(NC(=O)CCc2nnc(COC(C)(C)C)n2C2CC2)c(C)c1 [Example F-97]"
measured_value = "> 3 µM"

[[record]]
compound = "CC(=O)N1C[C@@H](C(=O)Nc2ccc(C)cc2C)[C@H](c2nnc([C@H]3C[C@@H](OC(C)C)C3)n2C2CC2)C1 [Example F-337]"
measured_value = "> 3 µM"

[[record]]
compound = "Cc1c(Cl)cccc1NC(=O)CCc1nnc(C2CN(C(=O)C(C)C)C2)n1C1CC1 [Example F-259]"
measured_value = "> 3 µM"

[[record]]
compound = "Cc1ccc(NC(=O)CCc2nnc(CCC3CCCCC3)n2[C@@H]2C[C@H]2C)c(C)c1 (racemic) [Example F-141]"
measured_value = "< 3 µM"

[[record]]
compound = "CNC(=O)CCC(CC(=O)Nc1ccc(C)cc1C)c1nnc(CCCC(C)C)n1C1CC1 (racemic) [Example F-285]"
measured_value = "< 3 µM"

[[record]]
compound = "COC1CCC(CCc2nnc(CCC(=O)Nc3cccc(Cl)c3C)n2C2CC2)CC1 (stereo not shown) [Example F-242]"
measured_value = "< 3 µM"

[[record]]
compound = "Cc1c(NC(=O)CCc2nnc(CCC(C)C)n2C2CC2)ccc(Cl)c1Cl [Example F-165]"
measured_value = "< 3 µM"


Quick batch: EC50 for everything below.
1. Cc1ccc(NC(=O)C[C@H](Cc2nccs2)c2nnc([C@H]3C[C@@H](CC(C)C)C3)n2C2CC2)c(C)c1 [Example F-475]
2. CCn1c(CC(C)C(=O)Nc2cccc3ccccc23)nnc1C1Cc2ccccc2C1 (racemic) [Example F-32]
3. C=CCC(CC(=O)Nc1ccc(C)cc1C)c1nnc(CCCC(C)(C)C)n1C1CC1 (racemic) [Example F-306]
4. C=CCC(CC(=O)NCc1ccc(C)cc1OC)c1nnc(CCC2CCCCC2)n1C1CC1 (racemic) [Example F-246]
5. Cc1ccc(NC(=O)CC(c2nnc([C@H]3C[C@@H](CC(C)C)C3)n2C2CC2)C2CN(C(=O)OCc3ccccc3)C2)c(C)c1 (mixture of isomers) [Example F-459]
6. Cc1ccc(NC(=O)CCc2noc(CCC3CCCCC3)c2C2CC2)c(C)c1 [Example F-494]
7. CC(=O)N1C[C@H](C(=O)Nc2ccc(C)cc2C)[C@@H](c2nnc(C3CC4(CCCCC4)C3)n2C2CC2)C1 [Example F-473]

Result:
< 3 µM
< 3 µM
< 3 µM
< 3 µM
< 3 µM
< 3 µM
< 3 µM

Batch lookup, EC50 per entry.
1. Cc1c(Cl)cccc1NC(=O)CCc1nnc(CCCC(C)(C)C(=O)N(C)C)n1C1CC1 [Example F-238]
2. CC(=O)N1C[C@@H](C(=O)Nc2ccc(C)cc2C)[C@H](c2nnc(-c3ccc(C(C)C)cc3)n2C2CC2)C1 [Example F-372]
3. Cc1c(Cl)cccc1NC(=O)CCc1nnc(CCC2CCC(F)(F)CC2)n1C1CC1 [Example F-254]
4. Cc1ccc(NC(=O)CCc2nnc(C3CC4(CCCC4)C3)n2C2CC2)c(C)c1 [Example F-420]
5. Cc1ccncc1NC(=O)CCc1nnc(CCC(C)C)n1C1CC1 [Example F-90]
6. Cc1ccc(NC(=O)C[C@H](CCC(=O)O)c2noc(-c3cc(C(F)(F)C4CCCC4)on3)c2C2CC2)c(Cl)c1 [Example E-39]

Result:
1: > 3 µM; 2: > 3 µM; 3: < 3 µM; 4: < 3 µM; 5: > 3 µM; 6: < 3 µM

Each of the following entries comes with a recorded value; kindly state EC50 for each.
1. Cc1c(CO)cccc1NC(=O)CCc1nnc(CCC(C)C)n1C1CC1 [Example F-87]
2. CCC(C)CCc1nnc(CCC(=O)Nc2ccc(C)cc2C)n1C1CC1 (racemic) [Example F-236]

Result:
1. > 3 µM
2. < 3 µM

Look up EC50 for the entries below, preserving their order.
1. COCCC(CC(=O)Nc1ccc(C)cc1C)c1nnc(CCC2CCCCC2)n1C1CC1 (racemic) [Example F-396]
2. Cc1cnccc1CNC(=O)CCc1nnc(CCC(C)C)n1C1CC1 [Example F-111]
3. Cc1ccc(NC(=O)C[C@H](CCC(=O)O)c2noc(-c3cc(C(F)(F)CC(C)C)on3)c2C2CC2)c(Cl)c1 [Example E-33]

Result:
1: < 3 µM; 2: > 3 µM; 3: < 3 µM

Hi! Can you tell me EC50 for each of these compounds?
1. Cc1ccc(NC(=O)CCc2nnc(C(O)CCC(C)(C)C)n2C2CC2)c(C)c1 (racemic) [Example F-367]
2. CCn1c(CCC(=O)Nc2cccc(Cl)c2Cl)nnc1C1Cc2ccccc2C1 [Example F-30]
3. COc1ccc(NC(=O)CCc2nnc(CCC(C)C)n2C2CC2)c(C)c1 [Example F-82]

Result:
1. < 3 µM
2. < 3 µM
3. > 3 µM

For every listed record, write down its EC50.
1. Cc1ccc(NC(=O)C[C@@H](CCO)c2nnc(CCCC(C)(C)C)n2CC(F)(F)F)c(C)c1 [Example F-379]
2. COc1c(CNC(=O)CCc2nnc(CCC(C)C)n2C2CC2)ccc(C)c1C [Example F-262]

Result:
1: < 3 µM; 2: > 3 µM
